Biological target: T1, CD123 (Homo sapiens (Human), UniProt P26951 19-305, limits assumed)
T1 construct: The CD123 construct used in the ELISA is not described; also called CD123-Signal
T1 sequence: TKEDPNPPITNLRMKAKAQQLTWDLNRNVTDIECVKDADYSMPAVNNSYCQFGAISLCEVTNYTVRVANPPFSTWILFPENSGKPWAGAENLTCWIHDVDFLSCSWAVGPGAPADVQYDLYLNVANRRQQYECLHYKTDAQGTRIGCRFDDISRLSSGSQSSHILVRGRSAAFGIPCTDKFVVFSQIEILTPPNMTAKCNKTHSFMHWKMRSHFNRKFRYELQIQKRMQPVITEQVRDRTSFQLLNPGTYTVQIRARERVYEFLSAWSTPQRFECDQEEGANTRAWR
Test: ELISA
Set-up: unit not given here
We label by threshold. Values of ELISA_avg strictly beneath 6 are TRUE. Values of 6 and up are FALSE.

// known answers, use as guide
* D domain of SEQ ID NO: 629 (designed binder) MGSWIEFDERLDAIDFRLWALGGSEAELAWFEGWIAEFESDLQLYKGKGNPEVEALNEEANAIFHELSAYRHN | FALSE
* D domain of SEQ ID NO: 529 (designed binder) MGSWYMFKEELADIKWYLEALGGSEAELAWFEDDIAGFEWDLQAYKGKGNPEVEALRKEAAAIRDELQAYRHN | FALSE
* D domain of SEQ ID NO: 487 (designed binder) MGSWEFFKYELADIKDELEALGGSEAELAWFEEDIATFEEWLQGYKGKGNPEVEALRKEAAAIRDELQAYRHN | TRUE
* D domain of SEQ ID NO: 351 (designed binder) MGSWVEFWFRLEAIDSRLWALGGSEAELAAFEKEIAAFESELQAYKGKGNPEVEWLREEAAAIREDLQAYRHN | TRUE
* D domain of SEQ ID NO: 488 (designed binder) MGSWQTFKDELAHIKWELEALGGSEAELAWFEWDIANFEEELQEYKGKGNPEVEALRKEAAAIRDELQAYRHN | TRUE

Okay, now this binder:
Req: Confirm or reject: ELISA_avg of D domain of SEQ ID NO: 430 (designed binder) MGSWMEFEERLWAIDSRLWALGGSEAELAAFEKEIAAFESELQAYKGKGNPEVEWLRSEAAWIRMELQAYRHN lies strictly below 6
Resp: TRUE
